Test: Pharmacokinetic assays (plasma and tumor) in nude mice xenografted with MV4-11 cells
Type: in vivo, mouse
Conditions: nude, mouse, tumor, po, 3 mg/kg, gilteritinib in tumor; gilteritinib 3, azacitidine 3 mg/kg
Endpoint name: Cmax (ng/g)
Reply with just the number (in ng/g).

Per the records, this molecule ( `CCc1nc(C(N)=O)c(Nc2ccc(N3CCC(N4CCN(C)CC4)CC3)c(OC)c2)nc1NC1CCOCC1` ) has Cmax equal to 349

###

Assay: Pharmacokinetic assays (plasma and tumor) in nude mice xenografted with MV4-11 cells
Assay type: in vivo, mouse
Conditions: nude, mouse, tumor, ip, AraC in tumor; gilteritinib 0, AraC 50, IDR 0.5 mg/kg
Endpoint name: Tmax
# include the unit after the value

Per the records, this compound ( `Nc1ccn([C@@H]2O[C@H](CO)[C@@H](O)[C@@H]2O)c(=O)n1` ) has Tmax equal to 2 h
